From: patent US20240336681A1

target: T1, human CD47 on cells (human, UniProt Q08722 19-323); test: flow cytometry on CD47-positive Expi293 cells, 50 nM antibody; MFI of the antibody over MFI of the isotype control
T1 construct: also called CD47 on Molm-13, OVCAR-3, Suit-2 MSLN, HL-60 cells, red blood cells and CD47-transfected CHO cells
T1 sequence (Q08722 19-323): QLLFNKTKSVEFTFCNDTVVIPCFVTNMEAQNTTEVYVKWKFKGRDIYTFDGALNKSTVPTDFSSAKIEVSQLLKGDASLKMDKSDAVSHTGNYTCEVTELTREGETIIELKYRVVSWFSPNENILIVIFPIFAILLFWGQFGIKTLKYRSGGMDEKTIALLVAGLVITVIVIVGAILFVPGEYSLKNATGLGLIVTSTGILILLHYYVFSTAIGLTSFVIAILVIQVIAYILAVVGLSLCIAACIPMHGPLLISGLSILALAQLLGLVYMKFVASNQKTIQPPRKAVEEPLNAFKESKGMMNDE
Each item that follows carries a reported MFI ratio.
measured-parameter: MFI ratio

[[record]]
binder = "2D6-010 (antibody, IgG4, V domains shown, also called VH3/VL2) VH: QVQLVESGGGLVQPGGSLRLSCAASGYTFTSYDINWVRQAPGKGLEWVGWIYPRDGSPKYNEKFKGRFTISADTSKNTAYLQMNSLRAEDTAVYYCARSVYYGTQFAYWGQGTLVTVSS VL: DIVMTQSPSSLAVSLGERVTMSCKSSQSLLNSRTRKNYLAWYQQKPGQPPKLLIYWASTRDSGVPDRFSGSGSGTDFTLTISSLQAEDVAVYYCKQSFNLVTFGGGTKLEIK"
measured_parameter = "MFI ratio"
observed_value = 1.08

[[record]]
binder = "2D6-005 (antibody, IgG4, V domains shown, hIgG4 (humanized IgG4), human kappa constant light chain from vector; only the variable domains are tied to the construct; also called VH2/VL1) VH: QVELVQSGPEVKKPGSSVKVSCKASGYTFPSYDINWVRQRPGQGLEWMGWIYPRDGSPKYNEKFKGRVTITADTSTSTAYMELHSLRSEDTAVYYCARSVYYGTQFAYWGQGTLVTVSA VL: DIVLTQSPSSLSASVGDRVTMSCKSSQSLLNSRTRKNYLAWYQQKPGKAPKLLIYWASTRDSGVPSRFSGSGSGTDFTLTISSLQPEDIATYYCKQSFNLVTFGGGTKLEIK"
measured_parameter = "MFI ratio"
observed_value = 4.95

[[record]]
binder = "2D6-014 (antibody, IgG4, V domains shown, also called VH4/VL2) VH: QVQLVESGGGLVQPGGSLRLSCAASGYTFPSYDINWVRQAPGKGLEWVGWIYPRDGSPKYNEKFKGRFTISADTSKNTAYLQMNSLRAEDTAVYYCARSVYYGTQFAYWGQGTLVTVSS VL: DIVMTQSPSSLAVSLGERVTMSCKSSQSLLNSRTRKNYLAWYQQKPGQPPKLLIYWASTRDSGVPDRFSGSGSGTDFTLTISSLQAEDVAVYYCKQSFNLVTFGGGTKLEIK"
measured_parameter = "MFI ratio"
observed_value = 1.03

[[record]]
binder = "2D6-013 (antibody, IgG4, V domains shown, also called VH4/VL1) VH: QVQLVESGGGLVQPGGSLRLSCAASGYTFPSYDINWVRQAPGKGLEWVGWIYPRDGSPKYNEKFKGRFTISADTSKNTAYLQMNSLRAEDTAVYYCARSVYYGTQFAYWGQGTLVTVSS VL: DIVLTQSPSSLSASVGDRVTMSCKSSQSLLNSRTRKNYLAWYQQKPGKAPKLLIYWASTRDSGVPSRFSGSGSGTDFTLTISSLQPEDIATYYCKQSFNLVTFGGGTKLEIK"
measured_parameter = "MFI ratio"
observed_value = 1.05

[[record]]
binder = "2D6-001 (antibody, IgG4, V domains shown, also called VH1/VL1) VH: QVELVQSGAEVKKPGSSVKVSCKASGGTFPSYDINWVRQAPGQGLEWMGWIYPRDGSPKYNEKFKGRVTITADESTSTAYMELSSLRSEDTAVYYCARSVYYGTQFAYWGQGTLVTVSS VL: DIVLTQSPSSLSASVGDRVTMSCKSSQSLLNSRTRKNYLAWYQQKPGKAPKLLIYWASTRDSGVPSRFSGSGSGTDFTLTISSLQPEDIATYYCKQSFNLVTFGGGTKLEIK"
measured_parameter = "MFI ratio"
observed_value = 1.15

[[record]]
binder = "2D6-003 (antibody, IgG4, V domains shown, also called VH1/VL3) VH: QVELVQSGAEVKKPGSSVKVSCKASGGTFPSYDINWVRQAPGQGLEWMGWIYPRDGSPKYNEKFKGRVTITADESTSTAYMELSSLRSEDTAVYYCARSVYYGTQFAYWGQGTLVTVSS VL: DIQMTQSPSSLSASVGDRVTITCKSSQSLLNSRTRKNYLAWYQQKPGKAPKLLIYWASTRDSGVPSRFSGSGSGTDFTLTISSLQPEDFATYYCKQSFNLVTFGQGTKVEIK"
measured_parameter = "MFI ratio"
observed_value = 1.06

